Hi there, I'd appreciate the recorded Hillslope α7 for every entry that follows.
- TARGET_OR_TEST_SYSTEM: rat α7 nAChR (Rattus norvegicus)
- Sequence (Q05941 23-502): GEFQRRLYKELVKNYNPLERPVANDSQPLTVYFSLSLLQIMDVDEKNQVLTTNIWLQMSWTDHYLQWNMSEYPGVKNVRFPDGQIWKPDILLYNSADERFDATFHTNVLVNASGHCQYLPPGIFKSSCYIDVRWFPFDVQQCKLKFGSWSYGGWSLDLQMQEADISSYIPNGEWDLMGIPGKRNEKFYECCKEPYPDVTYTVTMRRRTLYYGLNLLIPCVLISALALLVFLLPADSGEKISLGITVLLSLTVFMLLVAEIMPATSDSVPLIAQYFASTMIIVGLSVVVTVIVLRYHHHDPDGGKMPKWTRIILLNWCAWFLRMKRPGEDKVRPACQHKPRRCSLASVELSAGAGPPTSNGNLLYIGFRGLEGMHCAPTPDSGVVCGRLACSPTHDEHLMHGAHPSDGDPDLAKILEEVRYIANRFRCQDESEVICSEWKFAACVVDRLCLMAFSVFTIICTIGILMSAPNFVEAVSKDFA
- Type: cell-based
Kindly provide the number alone.

## Input Need Hillslope α7, item CC(=O)OCC[N+](C)(C)C [Acetylcholine, reference compound]
## Output 1.5

## Input Need Hillslope α7, item Clc1ccc2c(n1)OC13CCC1NCC23 (racemic) [(±)-1, phantasmidine]
## Output 1.8

## Input Need Hillslope α7, item Clc1ccc2c(n1)O[C@]13CC[C@H]1NC[C@H]23
## Output 1.5

## Input Need Hillslope α7, item Clc1ccc2c(n1)O[C@@]13CC[C@@H]1NC[C@@H]23
## Output 1.3

###

Hi there, I'd appreciate the recorded LD50 for every entry that follows.
- TEST: In-vivo toxicity
- PROTOCOL_CONDITIONS: male, Swiss-Webster, mouse, in vivo, iv
Express the reported value numerically, then name its unit.

## Input Need LD50, item Clc1ccc(C2CC3CCC2N3)cn1 (racemic) [(±)-2, epibatidine, reference compound]
## Output 0.0015 mg/kg

## Input Need LD50, item Clc1ccc2c(n1)O[C@]13CC[C@H]1NC[C@H]23
## Output 0.072 mg/kg

## Input Need LD50, item Clc1ccc2c(n1)OC13CCC1NCC23 (racemic) [(±)-1, phantasmidine]
## Output 0.27 mg/kg

###

Hi there, I'd appreciate the recorded Hillslope α4β2 for every entry that follows.
- TARGET_OR_TEST_SYSTEM: rat α4β2 nAChR (Rattus norvegicus, UniProt P09483+P12390)
- Sequence (P09483 31-630): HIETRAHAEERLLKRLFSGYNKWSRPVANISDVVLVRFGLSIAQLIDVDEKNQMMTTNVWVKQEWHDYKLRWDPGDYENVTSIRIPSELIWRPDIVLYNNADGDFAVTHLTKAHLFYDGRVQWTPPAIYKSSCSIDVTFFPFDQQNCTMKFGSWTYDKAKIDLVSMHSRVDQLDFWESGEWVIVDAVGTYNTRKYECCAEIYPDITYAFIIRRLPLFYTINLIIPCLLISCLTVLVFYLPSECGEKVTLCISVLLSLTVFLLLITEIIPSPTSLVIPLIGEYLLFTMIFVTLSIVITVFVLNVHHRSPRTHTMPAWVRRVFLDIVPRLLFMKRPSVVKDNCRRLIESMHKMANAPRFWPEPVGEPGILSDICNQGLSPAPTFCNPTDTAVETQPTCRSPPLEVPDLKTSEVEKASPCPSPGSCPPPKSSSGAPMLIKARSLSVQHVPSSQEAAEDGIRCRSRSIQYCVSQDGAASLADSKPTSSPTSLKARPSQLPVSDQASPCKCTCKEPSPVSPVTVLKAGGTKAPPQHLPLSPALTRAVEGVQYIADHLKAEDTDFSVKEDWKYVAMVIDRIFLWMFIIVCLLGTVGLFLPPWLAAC
- Sequence (P12390 25-500): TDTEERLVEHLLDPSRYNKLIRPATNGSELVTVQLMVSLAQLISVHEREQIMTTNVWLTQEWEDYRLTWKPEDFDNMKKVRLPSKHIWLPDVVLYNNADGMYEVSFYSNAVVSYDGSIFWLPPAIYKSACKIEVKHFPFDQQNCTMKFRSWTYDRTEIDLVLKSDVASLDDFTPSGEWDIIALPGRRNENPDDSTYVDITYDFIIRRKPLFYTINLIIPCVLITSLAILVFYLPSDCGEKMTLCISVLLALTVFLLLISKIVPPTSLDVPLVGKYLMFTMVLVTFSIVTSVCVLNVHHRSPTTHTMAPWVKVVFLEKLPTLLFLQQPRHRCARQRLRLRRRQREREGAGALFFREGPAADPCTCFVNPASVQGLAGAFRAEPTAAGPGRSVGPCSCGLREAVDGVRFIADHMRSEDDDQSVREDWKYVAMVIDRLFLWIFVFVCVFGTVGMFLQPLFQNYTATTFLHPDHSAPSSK
- Assay type: cell-based
Kindly provide the number alone.

## Input Need Hillslope α4β2, item Clc1ccc2c(n1)O[C@]13CC[C@H]1NC[C@H]23 [(2aR,4aS,9aS)-1, phantasmidine]
## Output 1.8

## Input Need Hillslope α4β2, item Clc1ccc2c(n1)OC13CCC1NCC23 (racemic) [(±)-1, phantasmidine]
## Output 1.6

## Input Need Hillslope α4β2, item Clc1ccc2c(n1)O[C@@]13CC[C@@H]1NC[C@@H]23 [(2aS,4aR,9aR)-ent-1]
## Output 1.7

Data credit: paper PMC7142328
